Where do the numbers come from? From the array DNA melting data of Ke et al. (doi:10.1101/2024.01.08.574731).

procedure-details: melting temperature; fluorescence melt of hairpins on a sequencing array, two-state fit, raised by 9.35 °C to match UV melts
details: sodium 0.088 M
Mark no (0) for Tm values under 40 °C, and yes (1) for everything at or above.

q: Record GGGCCTCCGAAAGGACCC (((..(((....)))))) ; criterion: Tm no lower than 40 °C. Met?
a: yes (1)

q: Field entry: GATCGGGGAAACCCAATC (((.(((....))).)))
a: no (0)

q: Field entry: GGCGGGGGAAACCTCGCC ((((.((....)).))))
a: yes (1)

Next:
q: Record GTGGCGTCGAAAGACCAC (((..(((....)))))) ; criterion: Tm no lower than 40 °C. Met?
a: yes (1)

q: Field entry: GATTACGAAAGTAAAATC ((((((....)))..)))
a: no (0)

q: Field entry: GATGACGAAAGTCGTATC ((((((....)))..)))
a: no (0)

q: Field entry: GAAATGGGAAACTATTTC (((((.(....).)))))
a: no (0)

q: Field entry: GGTATTGGAAACAACACC (((.(((....))).)))
a: no (0)

q: Field entry: GACCGGGGAAACTCGGTC (((((.(....).)))))
a: yes (1)

q: Field entry: GCATCTGGAAACAAATGC ((((.((....)).))))
a: no (0)

q: Field entry: GGCTCGGGAAACCGGGTC (.(.(((....))).).)
a: yes (1)

----------
procedure-details: melting temperature; fluorescence melt of hairpins on a sequencing array, two-state fit, raised by 9.35 °C to match UV melts
details: sodium 0.088 M
Provide the reported Tm of each item.
Numbers only, in °C.

q: What does the record list as Tm for GATCATCCTATGATC ((((((...)))))) ?
a: 48.3

q: Field entry: GGCAAGGGAAACCTTGCC (((((((....)))))))
a: 67.8

q: Field entry: GCTGATCGAAAGATAGC (((.(((....))))))
a: 41.5

q: Field entry: GACCCTGGAAACAGGGCC (.(((((....))))).)
a: 47.2

q: Field entry: GCCATACGAAAGTAGGGC (((.(((....))).)))
a: 60.5

Batch of 3 sequences: report Tm for each.
1. GCGCACGGAAACGTACGC (((.(((....))).)))
2. GTGTCGGGAAACCAACAC ((((.((....)).))))
3. GGGGGTCGAAAGACGCCC (((.(((....))).)))

a:
56
42.9
68.7

Batch of 5 sequences: report Tm for each.
1. GGGGCTGGAAACGGCTCC ((.((.(....).)).))
2. GATCCATAGGTGGATC ((((((....))))))
3. GTAGTCGAAAGACACTAC ((((((....)))..)))
4. GTCCCCGAAAGGGACGAC ((((((....)))..)))
5. GCAGTACGAAAGTATTGC (((.(((....))).)))

a:
[48.6, 52, 39.6, 69.3, 52.8]

Batch of 7 sequences: report Tm for each.
1. GAGGGGGGAAACCTCCTC ((((.((....)).))))
2. GCTCACGAAAGTGTTAGC ((((((....)))..)))
3. GCAATCGGAAACGGTTGC ((((.((....)).))))
4. GTCTATGGAAACATGGAC (((.(((....))).)))
5. GCGTAGTACGC ((((...))))
6. GATAGCGAAAGCTTGATC ((((((....)))..)))
7. GAGAGCGAAAGCTGTCTC ((((((....)))..)))

a:
1. 51.4
2. 40.8
3. 55.8
4. 45.6
5. 53.1
6. 25.1
7. 51.1

Batch of 6 sequences: report Tm for each.
1. GATCCAAGTCTGGATC ((((((....))))))
2. GGACCAGGAAACTAGTCC ((((.((....)).))))
3. GATCTGCGTTCAGATC ((((((....))))))
4. GCGGTTCCCGC ((((...))))
5. GATCGGGCTTCCGATC ((((((....))))))
6. GATTGTGCGAAAGCAATC (((..(((....))))))

a:
1. 49
2. 36.4
3. 48.8
4. 67.5
5. 59.4
6. 34
